Value source: the Immune Epitope Database (IEDB)

target: HLA-A*30:02; assay: IEDB peptide-MHC binding, purified MHC/competitive/radioactivity; filed as Kd, often an IC50 or EC50 that approximates it; bounds were set here for any values at or beyond the usual limits of such assays; settings: source organism: Dengue virus 3 Martinique/1243/1999
value_kind: pKd
// pKd here means minus log10 of the molar concentration (mol/L)

Sample "CGRGGWSYY" — what was its pKd?
6.60

* * *

target: HLA-A*68:02; test: IEDB peptide-MHC binding, purified MHC/competitive/fluorescence; bounds were set here for any values at or beyond the usual limits of such assays; conditions: source organism: Mus musculus
pIC50: −log10 of the molar value.
value_kind: pIC50

Sample "VALFSSCPVAY" — what was its pIC50?
≤ 4.70
